For each entry below, report its IC50 value.
target.desc: human PCSK9 (Homo sapiens)
experimental.protocol: PCSK9 ligand binding assay (TR-FRET): interference with binding of human PCSK9 to human LDLR
measurement.context: Human PCSK9 Alexa Fluor 647 / Human LDLR extracellular domain-Europium Kryptate
Numbers only, in nM.

I would be grateful if you could provide IC50 for each of the following entries.
1. CNCc1ncc(-c2ccc(Oc3cc(Cl)cc(F)c3CN3C(=O)C[C@@H](Cc4cccc(C)n4)C(=O)N4CCC[C@@](Cc5ccc(Cl)cc5)(C4)N(C)C(=O)[C@H](COC)NC(=O)[C@@H]3C)cc2)n1C
2. COC[C@@H]1NC(=O)[C@H](C)N(Cc2ncc(Cl)cc2Oc2ccc(-c3cnc(CN(C)C)n3C)nc2)C(=O)C[C@@H](Cc2ccccc2)C(=O)N2CCC[C@@](Cc3ccc(Cl)cc3)(C2)N(C)C1=O
3. C[C@H]1C(=O)N[C@@H](CO)C(=O)N[C@@]2(Cc3ccc(Cl)cc3)CCCN(C2)C(=O)[C@H](CC2CC2)CC(=O)N1Cc1ccc(Cl)cc1Oc1ccc(-c2cnc(CNC(C)(C)C)n2C)cc1

Result:
[0.9, 1.41, 1.09]

* * *

target.desc: human PCSK9 (Homo sapiens, UniProt Q8NBP7)
Sequence (Q8NBP7 153-692): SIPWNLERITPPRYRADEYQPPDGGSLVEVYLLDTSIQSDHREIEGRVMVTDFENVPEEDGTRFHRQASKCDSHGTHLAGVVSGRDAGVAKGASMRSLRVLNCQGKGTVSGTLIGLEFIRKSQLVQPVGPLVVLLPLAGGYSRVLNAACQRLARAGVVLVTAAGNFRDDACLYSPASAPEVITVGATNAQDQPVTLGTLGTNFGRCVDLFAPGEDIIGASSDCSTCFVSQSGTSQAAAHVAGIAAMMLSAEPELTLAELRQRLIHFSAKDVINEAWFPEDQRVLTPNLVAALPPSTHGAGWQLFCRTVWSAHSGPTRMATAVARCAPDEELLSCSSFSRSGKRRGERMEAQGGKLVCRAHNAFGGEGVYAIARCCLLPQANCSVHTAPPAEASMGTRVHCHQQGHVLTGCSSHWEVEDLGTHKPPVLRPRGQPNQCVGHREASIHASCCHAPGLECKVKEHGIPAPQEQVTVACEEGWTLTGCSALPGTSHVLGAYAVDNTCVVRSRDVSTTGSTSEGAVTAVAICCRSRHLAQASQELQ
Sequence (Q8NBP7 31-152 partner limits assumed): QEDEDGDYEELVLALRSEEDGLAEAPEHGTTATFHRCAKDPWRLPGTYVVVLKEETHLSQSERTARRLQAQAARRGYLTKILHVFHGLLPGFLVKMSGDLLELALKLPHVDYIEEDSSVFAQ
experimental.protocol: PCSK9 ligand binding assay (TR-FRET): interference with binding of human PCSK9 to human LDLR
measurement.context: Human PCSK9 Alexa Fluor 647 / Human LDLR extracellular domain-Europium Kryptate
measured.endpoint: IC50 (nM)
One number for each entry, in nM.

Past entries and their recorded results:
compound.smiles	output.unit	IC50
COC[C@@H]1NC(=O)[C@H](C)N(Cc2ccc(Cl)cc2Oc2ccc(-c3cnc(CN4CCCC4)n3C)cc2)C(=O)C[C@@H](N(C)C)C(=O)N(C)C[C@@H](Cc2ccc(Cl)cc2)N(C)C1=O.Cl	nM	490
C[C@H]1C(=O)N[C@@H](CO)C(=O)N[C@@]2(Cc3ccc(Cl)cc3)CCCN(C2)C(=O)[C@H]([C@@H]2CCc3ccccc32)CC(=O)N1Cc1ccc(Cl)cc1Oc1ccc(-c2cnc(CN3CCCC3)n2C)cc1.Cl	nM	1.73
COC[C@@H]1NC(=O)[C@H](C)N(Cc2c(F)cc(Cl)cc2Oc2ccc(-c3cnc(CN(C)C)n3C)cc2)C(=O)C[C@@H](CC(C)(F)F)C(=O)N2CCC[C@@](Cc3ccc(Cl)cc3)(C2)N(C)C1=O	nM	0.96

Q: Find the recorded IC50 belonging to "CCc1ccc(CN2C(=O)C[C@@H]([C@@H]3CCc4ccccc43)C(=O)N(C)C[C@@H](Cc3ccc(Cl)cc3)N(C)C(=O)[C@H](CO)NC(=O)[C@@H]2C)c(Oc2ccc(-c3cnc(CN(C)C)n3C)cc2)c1" and report it.
Result: 31.3

* * *

target.desc: human PCSK9 (Homo sapiens)
experimental.protocol: PCSK9 ligand binding assay (TR-FRET): interference with binding of human PCSK9 to human LDLR
measurement.context: Human PCSK9 Alexa Fluor 647 / Human LDLR extracellular domain-Europium Kryptate
For each entry below, report its pIC50 value.
Numbers only, as −log10 of the molar value.

compound	pIC50
COC[C@@H]1NC(=O)[C@H](C)N(Cc2c(F)cc(Cl)cc2Oc2ccc(-c3cnc(CNC(C)(C)C)n3C)cc2)C(=O)C[C@@H](CC(F)(F)F)C(=O)N2CCC[C@@](Cc3ccc(Cl)cc3)(C2)N(C)C1=O	9.59
C[C@H]1C(=O)N[C@@H](CO)C(=O)N[C@@]2(Cc3ccc(Cl)cc3)CCCN(C2)C(=O)[C@H](Cc2ccccc2)CC(=O)N1Cc1c(F)cc(F)cc1Oc1ccc(-c2cnc(CN3CCCC3)n2C)cc1	9.12
CCN(Cc1ncc(-c2ccc(Oc3cc(Cl)cc(F)c3CN3C(=O)C[C@@H](CC(F)(F)F)C(=O)N4CCC[C@@](Cc5ccc(Cl)cc5)(C4)NC(=O)[C@H](CO)NC(=O)[C@@H]3C)cc2)n1C)C1(C)CC1	8.48

Q: Find the recorded pIC50 belonging to CC(C)[C@H]1CC(=O)N(Cc2ccc(Cl)cc2Oc2ccc(-c3cnc(CN(C)C)n3C)cc2)[C@@H](C)C(=O)N[C@@H](CO)C(=O)N[C@@]2(Cc3ccc(Cl)cc3)CCCN(C2)C1=O.Cl [Compound 133, hydrochloride] and report it.
Result: 5.83

* * *

For each entry below, report its IC50 value.
target.desc: human PCSK9 (Homo sapiens)
experimental.protocol: PCSK9 ligand binding assay (TR-FRET): interference with binding of human PCSK9 to human LDLR
measurement.context: Human PCSK9 Alexa Fluor 647 / Human LDLR extracellular domain-Europium Kryptate
Give bare numbers, in nM.

Past entries and their recorded results:
compound.smiles	obs.value
C[C@H]1C(=O)N[C@@H](CO)C(=O)N[C@@]2(Cc3ccc(Cl)cc3)CCCN(C2)C(=O)[C@H](CC(F)F)NC(=O)N1Cc1ccc(Cl)cc1Oc1ccc(-c2cnc(CN(C)C)n2C)cc1.Cl	0.367
COC[C@@H]1NC(=O)[C@H](C)N(Cc2c(F)cc(Cl)cc2Oc2ccc(-c3cnc(CNC(C)(C)C)n3C)cc2)C(=O)C[C@@H](CC(F)(F)F)C(=O)N2CCC[C@@](Cc3ccc(Cl)cc3)(C2)NC1=O	0.18

I would be grateful if you could provide IC50 for each of the following entries.
1. C[C@H]1C(=O)N[C@@H](CO)C(=O)N[C@@]2(Cc3ccc(Cl)cc3)CCCN(C2)C(=O)[C@H](CC(F)(F)F)CC(=O)N1Cc1c(F)cc(Cl)cc1Oc1ccc(-c2cnc(CNC3CCC3)n2C)cc1
2. COC[C@@H]1NC(=O)[C@H](C)N(Cc2c(F)cc(Cl)cc2Oc2ccc(-c3cnc(CN(C)C)n3C)cc2)C(=O)C[C@@H](Cc2ccccc2)C(=O)N2CCC[C@@](Cc3ccc(Cl)cc3)(C2)N(C)C1=O
3. C[C@H]1C(=O)N[C@@H](CO)C(=O)N[C@@]2(Cc3ccc(Cl)cc3)CCCN(C2)C(=O)[C@H](CC(C)(F)F)CC(=O)N1Cc1c(F)cc(Cl)cc1Oc1ccc(-c2cnc(CN(C)C)n2C)cc1

Result:
1: 0.4; 2: 1.25; 3: 0.57

* * *

target.desc: human PCSK9 (Homo sapiens, UniProt Q8NBP7)
experimental.protocol: PCSK9 ligand binding assay (TR-FRET): interference with binding of human PCSK9 to human LDLR
measurement.context: efficacy (Amax), 100% = 1 uM unlabeled human PCSK9, 0% = DMSO
measured.endpoint: Max % inhibition (%)
Give bare numbers, in %.

I would be grateful if you could provide Max % inhibition for each of the following entries.
1. C[C@H]1C(=O)N[C@@H](CO)C(=O)N(C)[C@@]2(Cc3ccc(Cl)cc3)CCCN(C2)C(=O)[C@H](Cc2ccccc2)CC(=O)N1Cc1c(F)cc(Cl)cc1Oc1ccc(-c2cnc(CN(C)C)n2C)cc1
2. C[C@H]1C(=O)N[C@@H](CO)C(=O)N(C)[C@@]2(Cc3ccc(Cl)cc3)CCCN(C2)C(=O)[C@H](C2CC(F)(F)C2)CC(=O)N1Cc1c(F)cc(Cl)cc1Oc1ccc(-c2cnc(CN(C)C)n2C)cc1
3. C[C@H](NCc1ccc(Cl)cc1Oc1ccc(-c2cnc(CN(C)C)n2C)cc1)C(=O)N[C@H]1COC(=O)C[C@@H](Cc2ccccc2)C(=O)N(C)[C@@]2(Cc3ccc(Cl)cc3)CCCN(C2)C1=O
4. COC[C@@H]1NC(=O)[C@H](C)N(Cc2ccc(Cl)cc2Oc2ccc(-c3cnc(CN4CC[C@H](O)C4)n3C)cc2)C(=O)C[C@@H](Cc2ccccc2)C(=O)N2CCC[C@@](Cc3ccc(Cl)cc3)(C2)NC1=O.Cl
5. C[C@H]1C(=O)N[C@@H](CO)C(=O)N[C@@]2(Cc3ccc(Cl)cc3)CCCN(C2)C(=O)[C@H](Cc2ccccc2)CC(=O)N1Cc1c(F)cc(Cl)cc1Oc1ccc(-c2cnc(CN(C)C)n2C)cc1
6. C[C@H]1C(=O)N[C@@H](CO)C(=O)N[C@@]2(Cc3ccc(Cl)cc3)CCCN(C2)C(=O)[C@H](Cc2cccc(C(F)(F)F)c2)CC(=O)N1Cc1c(F)cc(Cl)cc1Oc1ccc(-c2cnc(CN(C)C)n2C)cc1
7. C[C@H]1C(=O)N[C@@H](COC(F)F)C(=O)N[C@@]2(Cc3ccc(Cl)cc3)CCCN(C2)C(=O)[C@H](Cc2ccccn2)CC(=O)N1Cc1ccc(Cl)cc1Oc1ccc(-c2cnc(CN3CCCC3)n2C)cc1

Result:
108.3
109.6
99.3
103.6
110.0
106.6
106.2

I would be grateful if you could provide Max % inhibition for each of the following entries.
1. C[C@H]1C(=O)N[C@@H](CC(=O)O)C(=O)N(C)[C@H](Cc2ccc(Cl)cc2)CN(C)C(=O)[C@H](Cc2ccccc2)CC(=O)N1Cc1ccc(Cl)cc1Oc1ccc(-c2cnc(CN3CCCC3)n2C)cc1.Cl
2. C[C@H]1C(=O)N[C@@H](CO)C(=O)N[C@@]2(Cc3ccc(Cl)cc3)CCCN(C2)C(=O)[C@H](CC2CC2)CC(=O)N1Cc1ccc(Cl)cc1Oc1ccc(-c2cnc(CN(C)C)n2C)cc1

Result:
1: 91.3; 2: 108.3

The measured values listed here are drawn from patent US11813306B2.
